Where do these numbers come from? They come from patent US11014941B2.

Molecular target: Influenza PB2 (Influenza A virus, UniProt P03428)
Sequence (P03428 whole entry, looked up): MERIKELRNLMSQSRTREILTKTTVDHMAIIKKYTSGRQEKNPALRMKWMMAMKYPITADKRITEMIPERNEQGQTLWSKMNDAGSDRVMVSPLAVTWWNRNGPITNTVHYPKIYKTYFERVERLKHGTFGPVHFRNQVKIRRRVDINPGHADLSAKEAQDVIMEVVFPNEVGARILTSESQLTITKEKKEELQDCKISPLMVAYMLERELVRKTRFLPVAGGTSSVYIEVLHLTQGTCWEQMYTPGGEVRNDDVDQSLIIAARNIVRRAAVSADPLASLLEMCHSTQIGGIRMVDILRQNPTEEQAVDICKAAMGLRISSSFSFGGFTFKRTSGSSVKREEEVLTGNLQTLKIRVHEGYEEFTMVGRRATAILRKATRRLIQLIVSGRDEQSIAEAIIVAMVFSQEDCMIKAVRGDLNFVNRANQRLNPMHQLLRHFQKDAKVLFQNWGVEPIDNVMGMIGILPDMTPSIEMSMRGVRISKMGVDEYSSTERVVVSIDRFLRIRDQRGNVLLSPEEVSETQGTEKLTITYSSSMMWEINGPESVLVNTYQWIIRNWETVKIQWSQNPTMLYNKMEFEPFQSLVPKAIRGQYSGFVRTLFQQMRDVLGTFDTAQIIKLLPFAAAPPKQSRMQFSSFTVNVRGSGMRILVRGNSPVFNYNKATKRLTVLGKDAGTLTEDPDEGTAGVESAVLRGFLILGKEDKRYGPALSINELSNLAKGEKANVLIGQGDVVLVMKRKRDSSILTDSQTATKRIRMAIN
IC50 values for the molecules below.
Readout type: IC50

Molecule	Readout type	Measured result
CCOC(=O)C(C)Cn1cc(-c2c[nH]c3ncc(F)cc23)c2cncnc21 (stereo not drawn)	IC50	> 100 µM
O=C(O)[C@H]1CCCN1C(=O)Cn1ccc2c(-c3c[nH]c4ncc(F)cc34)ncnc21	IC50	10 to 100 µM
O=C(O)[C@@H]1C2CCC(CC2)[C@H]1n1cc(C#CCC2CC2)c2cnc(-c3c[nH]c4ncc(F)cc34)nc21	IC50	10 to 100 µM
O=C(O)[C@H]1C2CCC(CC2)[C@@H]1n1ccc2cnc(-c3c[nH]c4ncc(Cl)cc34)nc21	IC50	1 to 10 µM
O=C(O)[C@@H]1C2CCC(CC2)C1n1cc(Cl)c2cnc(-c3c[nH]c4ncc(Cl)cc34)nc21 (single isomer, unassigned) [Compound B137]	IC50	< 1 µM
CCOCCOCCCCC(=O)N[C@H]1CCC[C@@H](n2ccc3cnc(-c4c[nH]c5ncc(F)cc45)nc32)C1 [Compound B52]	IC50	> 100 µM
O=C(O)[C@H]1C2CCC(CC2)[C@@H]1n1cc(F)c2cnc(-c3c[nH]c4ncc(Cl)cc34)nc21	IC50	< 1 µM
CCOCCOCCOCCNC(=O)N1CCC[C@H](n2ccc3cnc(-c4c[nH]c5ncc(F)cc45)nc32)C1	IC50	10 to 100 µM
COC(=O)CCn1ccc2cnc(-c3c[nH]c4ncc(F)cc34)nc21	IC50	> 100 µM
CN(C)C(=O)N1CCCCC1Cn1cc(F)c2cnc(-c3c[nH]c4ncc(F)cc34)nc21 (stereo not drawn)	IC50	1 to 10 µM
O=C(O)C1=CCCCC1n1cc(F)c2cnc(-c3c[nH]c4ncc(Cl)cc34)nc21 (stereo not drawn)	IC50	< 1 µM
COC(=O)N[C@H]1C2CCC(CC2)[C@@H]1n1cc(Cl)c2cnc(-c3c[nH]c4ncc(F)cc34)nc21	IC50	1 to 10 µM
O=C(O)[C@@H]1C2CCC(CC2)C1n1cc(F)c2cnc(-c3c[nH]c4ncc(F)cc34)nc21 (stereo partly drawn)	IC50	1 to 10 µM
CCOC(=O)[C@@H]1C2CCC(CC2)[C@H]1n1cc(C#CCCC#N)c2cnc(-c3c[nH]c4ncc(F)cc34)nc21	IC50	10 to 100 µM
O=C(O)[C@H]1C2CCC(CC2)[C@@H]1n1cc(F)c2cnc(-c3c[nH]c4ncc(F)cc34)nc21	IC50	< 1 µM

* * *

pIC50: −log10 of the molar value.
Hi! I'm sharing some pIC50 results obtained with Influenza PB2 (Influenza A virus, UniProt P03428).

Molecule	Target entity	pIC50
O=C(O)[C@@H]1C2CCC(CC2)[C@H]1n1cc(-c2cccc(O)c2)c2cnc(-c3c[nH]c4ncc(F)cc34)nc21 [Compound B145]	Influenza PB2 (Influenza A virus, UniProt P03428)	> 6.00
COC(=O)[C@]1(C)CCCC[C@H]1n1cc(C(F)(F)F)c2cnc(-c3c[nH]c4ncc(F)cc34)nc21 [Compound B73]	Influenza PB2 (Influenza A virus, UniProt P03428)	4.00 to 5.00
CN(C)C(=O)CCn1cc(-c2c[nH]c3ncc(F)cc23)c2cncnc21 [Compound C2]	Influenza PB2 (Influenza A virus, UniProt P03428)	< 4.00
CN(C)C(=O)CCn1ccc2c(-c3c[nH]c4ncc(F)cc34)ncnc21 [Compound A4]	Influenza PB2 (Influenza A virus, UniProt P03428)	4.00 to 5.00
CC(=O)N1CCC(Cn2cc(F)c3cnc(-c4c[nH]c5ncc(F)cc45)nc32)CC1 [Compound B58]	Influenza PB2 (Influenza A virus, UniProt P03428)	4.00 to 5.00
COC(=O)CNC(=O)Cn1ccc2cnc(-c3c[nH]c4ncc(F)cc34)nc21 [Compound B10]	Influenza PB2 (Influenza A virus, UniProt P03428)	< 4.00
CN(C)C(=O)CN1CCc2cnc(-c3c[nH]c4ncc(F)cc34)nc21 [Compound B6]	Influenza PB2 (Influenza A virus, UniProt P03428)	4.00 to 5.00
C=Cc1cnc2[nH]cc(-c3ncc4c(F)cn([C@@H]5C6CCC(CC6)[C@H]5C(=O)O)c4n3)c2c1 [Compound B210]	Influenza PB2 (Influenza A virus, UniProt P03428)	5.00 to 6.00
CN(C)C(=O)CCN1CCc2cnc(-c3c[nH]c4ncc(F)cc34)nc21 [Compound B12]	Influenza PB2 (Influenza A virus, UniProt P03428)	4.00 to 5.00
Fc1cnc2[nH]cc(-c3ncc4c(F)cn(CC5CCCNC5)c4n3)c2c1 (stereo not drawn) [Compound B60]	Influenza PB2 (Influenza A virus, UniProt P03428)	4.00 to 5.00
O=C(O)[C@@H]1C2CCC(CC2)[C@H]1n1cc(-c2ccccc2O)c2cnc(-c3c[nH]c4ncc(F)cc34)nc21 [Compound B165]	Influenza PB2 (Influenza A virus, UniProt P03428)	5.00 to 6.00
O=C(O)[C@@H]1C2CCC(CC2)[C@H]1n1cc(-c2ccsc2)c2cnc(-c3c[nH]c4ncc(F)cc34)nc21 [Compound B162]	Influenza PB2 (Influenza A virus, UniProt P03428)	> 6.00
N[C@H]1CC[C@@H](n2ccc3cnc(-c4c[nH]c5ncc(F)cc45)nc32)CC1 [Compound B69]	Influenza PB2 (Influenza A virus, UniProt P03428)	4.00 to 5.00
O=C(O)Cn1cc(-c2c[nH]c3ncc(F)cc23)c2cncnc21 [Compound C4]	Influenza PB2 (Influenza A virus, UniProt P03428)	< 4.00
O=C(O)Cn1ccc2c(-c3c[nH]c4ncc(F)cc34)ncnc21 [Compound A3]	Influenza PB2 (Influenza A virus, UniProt P03428)	5.00 to 6.00
CNC(=O)NCCn1cc(-c2c[nH]c3ncc(F)cc23)c2cncnc21 [Compound C14]	Influenza PB2 (Influenza A virus, UniProt P03428)	< 4.00
O=C(O)C[C@H](NC(=O)Cn1ccc2c(-c3c[nH]c4ncc(F)cc34)ncnc21)C(=O)O [Compound A14]	Influenza PB2 (Influenza A virus, UniProt P03428)	5.00 to 6.00
O=C(O)[C@@H]1C2CCC(CC2)[C@H]1n1cc(-c2ccoc2)c2cnc(-c3c[nH]c4ncc(F)cc34)nc21 [Compound B161]	Influenza PB2 (Influenza A virus, UniProt P03428)	> 6.00
O=C(O)[C@@H]1CCCC[C@H]1n1cc(F)c2cnc(-c3c[nH]c4ncc(Cl)cc34)nc21 [Compound B87]	Influenza PB2 (Influenza A virus, UniProt P03428)	> 6.00
O=C(O)[C@@H]1C2CCC(CC2)C1n1cc(-c2ccncc2)c2cnc(-c3c[nH]c4ncc(Cl)cc34)nc21 (single isomer, unassigned) [Compound B190]	Influenza PB2 (Influenza A virus, UniProt P03428)	5.00 to 6.00
O=C(O)[C@H]1CCC[C@@H]1n1ccc2cnc(-c3c[nH]c4ncc(F)cc34)nc21 [Compound B16]	Influenza PB2 (Influenza A virus, UniProt P03428)	5.00 to 6.00
O=C(O)[C@@H]1C2CCC(CC2)[C@H]1n1ccc2ccc(-c3c[nH]c4ncc(F)cc34)cc21 [Compound B198]	Influenza PB2 (Influenza A virus, UniProt P03428)	4.00 to 5.00
O=C(O)[C@@H]1CCCC[C@H]1n1ccc2cnc(-c3c[nH]c4ncc(F)cc34)nc21 (single isomer, unassigned) [Compound B24]	Influenza PB2 (Influenza A virus, UniProt P03428)	> 6.00
COC(=O)[C@H](Cc1ccccc1)NC(=O)Cn1ccc2c(-c3c[nH]c4ncc(F)cc34)ncnc21 [Compound A8]	Influenza PB2 (Influenza A virus, UniProt P03428)	< 4.00
